Target: T1, recombinant human LIGHT-214K, FLAG-tagged extracellular domain (human)
T1 construct: the IgK leader peptide is marked only by underlining (not visible here), so its residues were not removed; Trimer
T1 chain: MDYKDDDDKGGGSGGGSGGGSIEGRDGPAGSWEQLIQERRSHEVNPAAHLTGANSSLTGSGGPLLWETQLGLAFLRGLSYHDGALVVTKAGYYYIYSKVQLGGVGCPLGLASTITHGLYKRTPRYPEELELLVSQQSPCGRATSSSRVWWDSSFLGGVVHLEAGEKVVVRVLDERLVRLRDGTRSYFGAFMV
Assay: SPR ProteOn, mAb captured on anti-mouse IgG, LIGHT 256 nM, 25 C, apparent affinity
Method: SPR analysis was carried out using the ProteOn™ XPR36 Array System (BioRad). Anti-mouse IgG (GE Healthcare BR-1008-38) was immobilised on a GLC biosensor surface using amine coupling, the surface was then blocked using 1M ethanolamine. […] Apparent affinities for the LIGHT-antibody interaction were determined using the 1:1 model inherent to the ProteOn XPR36 analysis software. The assay was run using HBS-EP (Teknova) as running buffer and carried out at 25° C.
property.label: pKd
Friendly reminder that pKd comes from taking -log10 of the concentration in mol/L.

binder: 29C09 (purified from hybridoma supernatant) (antibody, V domains shown, Murine constant / human variable chimeric IgG, lambda, Protein G purified from hybridoma supernatant) VH: QEQLVQSGAEVKKPGASVKVSCKASGYTFTSYDINWVRQATGQGLEWMGWMNPNSGYTGYAQKFQGRVTMTRNTSIRTVYMELSSLRSEDTAVYYCARGGETFDIWGQGTMVTVSS VL: SYELTQPPSVSVSPGQTARITCSGDALPKKYAYWYQQKSGQAPVLVIYEDSKRPSGIPERFSGSSSGTMATLTISGAQVEDEADYYCYSTDSSDNHSVFGTGTKVTVL
pKd: 9.22

Okay, next one:
Query: Fill blank: measured pKd of the binder 42A02 (purified from hybridoma supernatant) (antibody, V domains shown, Murine constant / human variable chimeric IgG, lambda, Protein G purified from hybridoma supernatant) VH: EVQLVESGGGLVQPGGSLRLSCAASGFTFSSYVMSWVRQAPGKGLEWVSVISSSGVTTYYADSVKGRFTISRDNSKNTLYLQMNSLRAEETAVYYCAKGNYGSGSFCDYWGQGTPVTVSS VL: SYVLTQPPSVSVAPGKTARITCGGNNIGSKSVHWYQQRPGQAPILVIYYDSDRPSGIPERFSGSNSGNSATLTISRVEAGDEADYHCQVWESSSDHPVFGGGTKLTVL is ____.
Response: 9.79
